Cited source: ChEMBL document CHEMBL1147032

Target of assay: Prostaglandin G/H synthase 1 (Ovis aries)
Sequence (P05979 whole entry): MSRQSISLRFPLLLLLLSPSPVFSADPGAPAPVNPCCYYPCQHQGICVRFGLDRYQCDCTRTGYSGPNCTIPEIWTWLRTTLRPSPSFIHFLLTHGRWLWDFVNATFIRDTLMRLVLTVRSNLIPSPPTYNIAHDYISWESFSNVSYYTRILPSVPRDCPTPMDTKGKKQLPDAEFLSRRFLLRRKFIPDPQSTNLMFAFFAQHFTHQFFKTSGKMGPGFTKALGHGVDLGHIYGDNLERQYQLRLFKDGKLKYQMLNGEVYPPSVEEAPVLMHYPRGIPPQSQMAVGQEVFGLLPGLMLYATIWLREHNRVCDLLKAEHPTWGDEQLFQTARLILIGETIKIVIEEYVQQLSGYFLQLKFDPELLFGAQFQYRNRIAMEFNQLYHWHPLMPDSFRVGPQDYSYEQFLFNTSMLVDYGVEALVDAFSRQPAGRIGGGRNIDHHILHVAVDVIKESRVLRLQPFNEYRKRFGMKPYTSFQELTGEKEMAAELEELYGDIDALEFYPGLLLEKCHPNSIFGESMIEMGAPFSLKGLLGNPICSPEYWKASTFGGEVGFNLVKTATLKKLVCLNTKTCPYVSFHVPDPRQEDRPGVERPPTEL
pIC50: −log10 of the molar value.
Measure name: pIC50

- Smiles data: "CCSc1ncc(-c2ccc(S(C)(=O)=O)cc2)n1-c1ccccc1"
  pIC50: 6.24
- Smiles data: "CSc1ncc(-c2ccc(S(C)(=O)=O)cc2)n1-c1ccc(F)cc1"
  pIC50: 6.28
